- System: DIV17
- procedure text: qHTS profiling for inhibitors of Plasmodium falciparum proliferation (AID 504749); also: nearly all actives have a fitted effect of over 60% in size
- setup conditions: P. falciparum in erythrocytes, SYBR Green DNA, 72 h; series mostly up to 28.7 µM
Results filed as inconclusive are left out. The source made the active and inactive calls. Calls follow the shape of the dose curve; as a rule, active = well fitted inhibition curve with a large enough effect; inconclusive = small, poorly fitted or top-dose-only effect; inactive = flat fitted curve, though single readings scatter.
Pick one: T = active, F = inactive

Here's what some known entries look like.
1) NCCCCCC(=O)O; F
2) CC(C)Cc1ccc(C(C)C(=O)O)cc1 (stereo not given); F
3) Clc1ccc2nsnc2c1NC1=NCCN1; F
4) Nc1c2c(nc3ccccc13)CCCC2; T

Lookup: Hey, what did the test say about `NC(=O)NO` ?
Found: F

* * *

- procedure text: Cell Viability - SH-SY5Y (AID 544);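 also: cells exposed to compound for 40 hours; nearly all actives have a fitted effect of over 55% in size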
- setup conditions: SH-SY5Y neuroblastoma cell viability
Results filed as inconclusive are left out. Activity calls are given as the source filed them. The call rests on the fitted dose curve; in most records, active means well fitted cell-killing curve with a large enough effect; inconclusive means small, poorly fitted or top-dose-only effect; inactive means flat fitted curve, though single readings scatter.
Pick one: 1 (yes) = active, 0 (no) = inactive

1. COc1ccc2c(c1)c(CC(=O)O)c(C)n2C(=O)c1ccc(Cl)cc1; 0 (no)
2. Cn1c(=O)c2[nH]cnc2n(C)c1=O; 0 (no)
3. Nc1ccn([C@H]2CC[C@@H](CO)O2)c(=O)n1; 0 (no)
4. CC(C)NCC(O)c1ccc(O)c(O)c1 (stereo not drawn); 0 (no)
5. Cc1cn([C@H]2C[C@H](N=[N+]=[N-])[C@@H](CO)O2)c(=O)[nH]c1=O; 0 (no)
6. Nc1c2c(nc3ccccc13)CCCC2; 0 (no)
7. CCC1(c2ccccc2)C(=O)NCNC1=O; 0 (no)

Switching to the query record.
Lookup: Hey, what did the test say about CC(COc1ccccc1)N(CCCl)Cc1ccccc1 (stereo not drawn) ?
Found: 1 (yes)

* * *

- procedure text: qHTS for differential inhibitors of proliferation of Plasmodium falciparum line GB4 (AID 1816);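 also: parasite growth measured after 72 h incubation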
- setup conditions: Plasmodium falciparum GB4 proliferation inhibition; series mostly up to 28.7 µM
Inconclusive results are not listed. Active and inactive are the calls of the source. Calls come from the whole dose curve; as a rule, active = well fitted curve in the direction sought with a large enough effect; inconclusive = small, poorly fitted or top-dose-only effect, or another doubt; inactive = no such curve, though single readings can be large or run the other way.
Pick one: true (1) for active, false (0) for inactive

Here's what some known entries look like.
1. O=C(c1ccc(F)cc1)C1CCN(CCn2c(=O)[nH]c3ccccc3c2=O)CC1; true (1)
2. NC12CC3CC(CC(C3)C1)C2; true (1)
3. CNCCCC12CCC(c3ccccc31)c1ccccc12; true (1)

Switching to the query record.
Lookup: Hey, what did the test say about `COc1ccc2[nH]cc(CCNC(C)=O)c2c1` ?
Found: false (0)

* * *

- procedure text: qHTS of pediatric cancer cell lines to identify multiple opportunities for drug repurposing: Primary screen for NB-EBc1 cells (AID 1347095)
- setup conditions: NB-EBc1 neuroblastoma viability, CellTiter-Glo luminescence, 48 h; series mostly up to 46 µM
Records with an inconclusive call do not appear. The source made the active and inactive calls. The call rests on the fitted dose curve; in most records, active means well fitted cell-killing curve with a large enough effect; inconclusive means small, poorly fitted or top-dose-only effect; inactive means no such curve, though single readings can be large or run the other way.
Pick one: active, inactive

Here's what some known entries look like.
1) NCCCCCC(=O)O; inactive
2) O=C(c1ccc(OCCN2CCCCC2)cc1)c1c(-c2ccc(O)cc2)sc2cc(O)ccc12; active
3) Cc1ccccc1N1C(=O)c2cc(S(N)(=O)=O)c(Cl)cc2NC1C (stereo unspecified); inactive
4) CCOC(=O)Nc1ccc(NCc2ccc(F)cc2)nc1N; inactive
5) CC12CC3CC(C)(C1)CC(N)(C3)C2; inactive

Switching to the query record.
Lookup: Hey, what did the test say about `CN1CCC(=C2c3ccccc3C=Cc3ccccc32)CC1` ?
Found: inactive

* * *

- procedure text: qHTS drug screen for cell cycle checkpoint inhibitors in PARPi-resistant BRCA-mutant ovarian cancer cell lines. (AID 1963452)
- setup conditions: PEO1/OlaR viability, CellTiter-Glo luminescence, 96 h; stronger effect = lower value
Mark each entry met if its Z-AUC sits below 0.9, and not met for all others.

Here's what some known entries look like.
1. CC12CC3CC(C)(C1)CC(N)(C3)C2; not met
2. NCCc1cnc[nH]1; met

Lookup: Criterion: Z-AUC strictly below 0.9. Is it met by `Cn1cnc2c1c(=O)[nH]c(=O)n2C` ?
Found: met

Lookup: Criterion: Z-AUC strictly below 0.9. Is it met by `CN1CCN(C2=Nc3cc(Cl)ccc3Nc3ccccc32)CC1` ?
Found: met

Lookup: Criterion: Z-AUC strictly below 0.9. Is it met by O=C(C1CCCCC1)N1CC(=O)N2CCc3ccccc3C2C1 (stereo unspecified) ?
Found: not met

Lookup: Criterion: Z-AUC strictly below 0.9. Is it met by `CN(C)CCCN1c2ccccc2CCc2ccc(Cl)cc21` ?
Found: met

Lookup: Criterion: Z-AUC strictly below 0.9. Is it met by `Cc1cnc(C(=O)NCCc2ccc(S(=O)(=O)NC(=O)NC3CCCCC3)cc2)cn1` ?
Found: not met

Lookup: Criterion: Z-AUC strictly below 0.9. Is it met by `Cc1cc(C(C)(C)C)cc(C)c1CC1=NCCN1` ?
Found: met

Lookup: Criterion: Z-AUC strictly below 0.9. Is it met by `NCCS(=O)(=O)O` ?
Found: not met

Lookup: Criterion: Z-AUC strictly below 0.9. Is it met by `Nc1c2c(nc3ccccc13)CCCC2` ?
Found: not met

Lookup: Criterion: Z-AUC strictly below 0.9. Is it met by `O=C1N(c2ccccc2)c2ccccc2C1(Cc1ccncc1)Cc1ccncc1` ?
Found: met

* * *

- Tested on: AS120
- procedure text: qHTS profiling for inhibitors of Plasmodium falciparum proliferation (AID 504749); also: nearly all actives have a fitted effect of over 60% in size
- setup conditions: P. falciparum in erythrocytes, SYBR Green DNA, 72 h; series mostly up to 28.7 µM
- Procedure: NIH National Institute of Allergy and Infectious Diseases [NIAID] NIH Chemical Genomics Center [NCGC] […] Because mature erythrocytes lack DNA, only Plasmodium-derived DNA is detected. NCGC Assay Protocol Summary: The SYBR Green viability assay was adapted from a method described previously (Plouffe et al., 2008). […] The following morning, fluorescence intensity at 485(14) nm excitation and 535(25) nm emission wavelengths was measured on an EnVision (Perkin Elmer) plate reader. […]
Inconclusive results are not listed. Calls of active or inactive are those of the source. Calls come from the whole dose curve; as a rule, active = well fitted inhibition curve with a large enough effect; inconclusive = small, poorly fitted or top-dose-only effect; inactive = flat fitted curve, though single readings scatter.
Pick one: Y (active), N (inactive)

1. Cc1cn([C@H]2C[C@H](N=[N+]=[N-])[C@@H](CO)O2)c(=O)[nH]c1=O; N

Lookup: Hey, what did the test say about `CC#C[C@]1(O)CC[C@H]2[C@@H]3CCC4=CC(=O)CCC4=C3[C@@H](c3ccc(N(C)C)cc3)C[C@@]21C` ?
Found: Y

* * *

- measured on: Flap endonuclease 1 (Homo sapiens) (UniProt P39748)
- Sequence (P39748 whole entry, looked up): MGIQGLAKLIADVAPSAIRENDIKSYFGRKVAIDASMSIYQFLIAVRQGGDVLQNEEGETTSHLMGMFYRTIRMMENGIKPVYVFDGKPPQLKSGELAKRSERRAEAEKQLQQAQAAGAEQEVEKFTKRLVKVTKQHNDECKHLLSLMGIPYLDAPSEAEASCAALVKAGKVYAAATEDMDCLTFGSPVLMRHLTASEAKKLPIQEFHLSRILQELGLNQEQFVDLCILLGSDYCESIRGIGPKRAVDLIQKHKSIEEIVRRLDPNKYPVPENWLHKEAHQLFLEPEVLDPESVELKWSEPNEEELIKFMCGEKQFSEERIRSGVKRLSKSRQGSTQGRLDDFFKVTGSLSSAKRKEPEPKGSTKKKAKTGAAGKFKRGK
- procedure text: qHTS Validation Assay for the Inhibitors of Human Flap endonuclease 1 (FEN1) (AID 488816)
- setup conditions: FEN1 nuclease activity, fluorogenic DNA substrate; series mostly up to 57.1 µM
Calls of active or inactive are those of the source. Calls follow the shape of the dose curve; as a rule, active = well fitted inhibition curve with a large enough effect; inconclusive = small, poorly fitted or top-dose-only effect; inactive = flat fitted curve, though single readings scatter.
Pick one: active, inactive

1) COc1cc2nc(N(C)CCCNC(=O)C3CCCO3)nc(N)c2cc1OC (stereo unspecified); inactive
2) Cc1cc(C(C)(C)C)c(O)c(C)c1CC1=NCCN1; inactive

Lookup: Hey, what did the test say about `O=C(c1ccc(OCCN2CCCCC2)cc1)c1c(-c2ccc(O)cc2)sc2cc(O)ccc12` ?
Found: inactive

Lookup: Hey, what did the test say about `N[C@@H](Cc1c[nH]c2ccc(O)cc12)C(=O)O` ?
Found: inactive

Lookup: Hey, what did the test say about `COc1ccc2[nH]cc(CCNC(C)=O)c2c1` ?
Found: inactive

Lookup: Hey, what did the test say about `Cc1ccc(C(=O)Nc2ccc(S(=O)(=O)O)c3cc(S(=O)(=O)O)cc(S(=O)(=O)O)c23)cc1NC(=O)c1cccc(NC(=O)Nc2cccc(C(=O)Nc3cc(C(=O)Nc4ccc(S(=O)(=O)O)c5cc(S(=O)(=O)O)cc(S(=O)(=O)O)c45)ccc3C)c2)c1` ?
Found: active

* * *

- Test system: CP291
- procedure text: qHTS profiling for inhibitors of Plasmodium falciparum proliferation (AID 504749); also: nearly all actives have a fitted effect of over 60% in size
- setup conditions: P. falciparum in erythrocytes, SYBR Green DNA, 72 h; series mostly up to 28.7 µM
- Procedure: NIH National Institute of Allergy and Infectious Diseases [NIAID] NIH Chemical Genomics Center [NCGC] […] Because mature erythrocytes lack DNA, only Plasmodium-derived DNA is detected. NCGC Assay Protocol Summary: The SYBR Green viability assay was adapted from a method described previously (Plouffe et al., 2008). […] The following morning, fluorescence intensity at 485(14) nm excitation and 535(25) nm emission wavelengths was measured on an EnVision (Perkin Elmer) plate reader. […]
Records with an inconclusive call do not appear. Activity calls are given as the source filed them. Calls follow the shape of the dose curve; as a rule, active = well fitted inhibition curve with a large enough effect; inconclusive = small, poorly fitted or top-dose-only effect; inactive = flat fitted curve, though single readings scatter.
Pick one: Y for active, N for inactive

Here's what some known entries look like.
1. COc1cc2c(c(OC)c1OC)-c1ccc(OC)c(=O)cc1[C@@H](NC(C)=O)CC2; N
2. COc1ccc2[nH]cc(CCNC(C)=O)c2c1; N
3. O=C(Nc1ccc([N+](=O)[O-])cc1Cl)c1cc(Cl)ccc1O; Y
4. CC(C)C(=O)Nc1ccc([N+](=O)[O-])c(C(F)(F)F)c1; N
5. CCOC(=O)C(C)(C)Oc1ccc(Cl)cc1; N
6. CN1CCC(=C2c3ccccc3C=Cc3ccccc32)CC1; N
7. CCCNCC(O)COc1ccccc1C(=O)CCc1ccccc1 (stereo unspecified); Y
8. CC(C)(Oc1ccc(C2CC2(Cl)Cl)cc1)C(=O)O (stereo unspecified); N

Lookup: Hey, what did the test say about `O=C1N(c2ccccc2)c2ccccc2C1(Cc1ccncc1)Cc1ccncc1` ?
Found: N

Lookup: Hey, what did the test say about `CCOC(=O)c1ncn2c1CN(C)C(=O)c1cc(F)ccc1-2` ?
Found: N

Lookup: Hey, what did the test say about `CC(=O)OCC(CCn1cnc2cnc(N)nc21)COC(C)=O` ?
Found: N

Lookup: Hey, what did the test say about `CN(C)c1nc(N(C)C)nc(N(C)C)n1` ?
Found: N

Lookup: Hey, what did the test say about `NC(=O)NO` ?
Found: N

Lookup: Hey, what did the test say about COc1ccccc1OCC(O)CN1CCN(CC(=O)Nc2c(C)cccc2C)CC1 (stereo unspecified) ?
Found: N

Lookup: Hey, what did the test say about Clc1ccc(C(c2ccccc2Cl)C(Cl)Cl)cc1 (stereo unspecified) ?
Found: N

Lookup: Hey, what did the test say about `Cc1cc(C(C)(C)C)c(O)c(C)c1CC1=NCCN1` ?
Found: N

Lookup: Hey, what did the test say about `CN1C(C(=O)Nc2ccccn2)=C(O)c2ccccc2S1(=O)=O` ?
Found: N

Lookup: Hey, what did the test say about `Cc1cnc(C(=O)NCCc2ccc(S(=O)(=O)NC(=O)NC3CCCCC3)cc2)cn1` ?
Found: N

Lookup: Hey, what did the test say about `CC(C)(C)C(=O)Oc1ccc(S(=O)(=O)Nc2ccccc2C(=O)NCC(=O)O)cc1` ?
Found: N

Lookup: Hey, what did the test say about `O=c1c(-c2ccc(O)cc2)coc2cc(O)cc(O)c12` ?
Found: N

Lookup: Hey, what did the test say about `NC(=O)OCC(COC(N)=O)c1ccccc1` ?
Found: N
